Protocol Details: Elimination half life in patient with normal creatinine clearance
Assay type: ADME
Measurement Conditions: human, in vivo; read-out: beta t1/2
Measurement Kind: half-life

1) CN[C@H](CC(C)C)C(=O)N[C@H]1C(=O)N[C@@H](CC(N)=O)C(=O)N[C@H]2C(=O)N[C@H]3C(=O)N[C@H](C(=O)N[C@H](C(=O)O)c4cc(O)cc(O)c4-c4cc3ccc4O)[C@H](O)c3ccc(c(Cl)c3)Oc3cc2cc(c3O[C@@H]2O[C@H](CO)[C@@H](O)[C@H](O)[C@H]2O[C@H]2C[C@](C)(N)[C@H](O)[C@H](C)O2)Oc2ccc(cc2Cl)[C@H]1O 6 to 12 h
